test: Oral bioavailability in ICR mouse measured at 150 mg/kg upto 24 hrs by LC-MS/MS analysis; assay type: ADME, organism-based; conditions: in vivo
experimental readout: bioavailability

Would you mind telling me what bioavailability value was observed for "[2H][C@](C(=O)N[C@@H](C)c1ccc(F)cc1)(c1cccnc1)N(C(=O)C(C)=O)c1ccc2c(c1)oc1ccccc12" ? 92.9%

====

assay: Tmax in po dosed rat; format: ADME, organism-based; conditions: in vivo
experimental readout: Tmax (h)
Give just the number in h; leave the unit off.

Would you mind telling me what Tmax value was observed for "Cn1cc2cc(/N=c3\[nH]c(=O)n(Cc4cnn[nH]4)c(=O)n3Cc3cc(F)c(F)cc3F)c(Cl)cc2n1" ? 1
